test system: TYKNU; assay: fractional viability relative to vehicle; TYKNU is a high-grade serous ovarian cancer line; higher = less growth inhibition; conditions: 10uM; 72 h; genotype: OPA1 knockout (sgOPA1 #2)
Whole data set: some 2,000 compounds, median “fractional viability relative to vehicle” near 0.92, cut for the lowest 2% near 0.11. The sample holds the lowest values, similar compounds and a random draw of the others, so the mix is not that of the screen.
I'd appreciate it if you could supply fractional viability values for the items below.
Give your answer as a number; write no unit.

Prompt line: Give recorded fractional viability. "O=C(Cc1cccc(OC(F)(F)F)c1)Nc1ccc(CCCCc2nnc(NC(=O)Cc3ccccn3)s2)nn1"
Response line: 0.2

Prompt line: Please give measured fractional viability of the following entry: "COc1cc2ncnc(Oc3ccc(CC(=O)Nc4cnn(C(C)C)c4)cc3)c2cc1OC"
Response line: 0.942

Prompt line: Answer with the recorded fractional viability for the molecule listed here: "Cc1cc(/N=N/c2ccc(S(=O)(=O)Nc3ccccn3)cc2)c(N)cc1O"
Response line: 0.64

// provenance: the supplement of paper PMC5919970
